molecular target: HLA-A*0301
VALUE TYPE: ELISA (Absorption-Pass/Fail Control) (absorption)
Answers are plain numbers, in absorption.

Below are worked cases with known answers.
| BINDER | UNITS | ELISA (Absorption-Pass/Fail Control) |
| --- | --- | --- |
| NVTVTHAQD (modifications not checked) [… (SEQ ID NO: 27)] | absorption | -0.04 |
| KSDQICIGY (modifications not checked) [… (SEQ ID NO: 9)] | absorption | 0.05 |
| ILEKKHNGK (modifications not checked) [… (SEQ ID NO: 28)] | absorption | -0.01 |

Next, consider the following binder.
# ELISA (Absorption-Pass/Fail Control) lookup, item KLCDLDGVK (modifications not checked) [… (SEQ ID NO: 22)]
1.16
